Reported MIC, Moraxella catarrhalis.
Counter-ions that a name gives are not always drawn.

Qu. Answer briefly: MIC recorded on Moraxella catarrhalis for CN[C@@H]1[C@H](O)[C@H](NC)[C@H]2O[C@]3(O)[C@H](O[C@@H]2[C@H]1O)O[C@H](C)C[C@@]3(O)CNCc1ccccn1
Ans. 12.5 µg/mL

Qu. Fetch value of MIC on Moraxella catarrhalis for CN[C@@H]1[C@H](O)[C@H](NC)[C@H]2O[C@]3(O)[C@H](O[C@@H]2[C@H]1O)O[C@H](C)C[C@@]3(O)CNCc1ccc(C(C)C)cc1 [compound 23, Trihydrochloride] .
Ans. 3.1 to 6.3 µg/mL

Qu. Jot down MIC (Moraxella catarrhalis) of CN[C@@H]1[C@H](O)[C@H](NC)[C@H]2O[C@]3(O)[C@H](O[C@@H]2[C@H]1O)O[C@H](C)C[C@@]3(O)CNCc1ccc(F)c(F)c1 [compound 12, Trihydrochloride] .
Ans. 6.3 to 12.5 µg/mL

* * *

# Tested on: Burkholderia cepacia (ATCC 25416)
# TEST DESCRIPTION: MIC determination, microbroth dilution
# Format: cell-based
# APPLIED CONDITIONS: Burkholderia cepacia, ATCC25416, read-out: MIC B.c., Burkholderia cepacia (ATCC 25416)
Counter-ions that a name gives are not always drawn.
OBSERVED PROPERTY: MIC

Examples with answers:
- COMPOUND: "CN[C@@H]1[C@H](O)[C@H](NC)[C@H]2O[C@]3(O)[C@H](O[C@@H]2[C@H]1O)O[C@H](C)C[C@@]3(O)CNCCc1ccccc1 [compound 6, Trihydrochloride]"
  MIC: "> 200 µg/mL"
- COMPOUND: "CN[C@@H]1[C@H](O)[C@H](NC)[C@H]2O[C@]3(O)[C@H](O[C@@H]2[C@H]1O)O[C@H](C)C[C@@]3(O)CNCCN1CCOCC1"
  MIC: "> 200 µg/mL"
- COMPOUND: "CN[C@@H]1[C@H](O)[C@H](NC)[C@H]2O[C@]3(O)[C@H](O[C@@H]2[C@H]1O)O[C@H](C)C[C@]3(O)CNCc1ccc(OC(F)(F)F)cc1 (stereo in doubt) [compound 26, Trihydrochloride]"
  MIC: "> 200 µg/mL"

Qu. Return reported MIC. Input compound: CN[C@@H]1[C@H](O)[C@H](NC)[C@H]2O[C@]3(O)[C@H](O[C@@H]2[C@H]1O)O[C@H](C)C[C@@]3(O)CNc1ccc(F)cc1 [compound 31, Trihydrochloride]
Ans. > 200 µg/mL

Qu. Tell us which MIC value is on record for CN[C@@H]1[C@H](O)[C@H](NC)[C@H]2O[C@]3(O)[C@H](O[C@@H]2[C@H]1O)O[C@H](C)C[C@@]3(O)CNCCc1ccc(OC(F)(F)F)cc1 [compound 57, Trihydrochloride]
Ans. ≥ 200 µg/mL

Qu. Return MIC for the following compound: CN[C@@H]1[C@H](O)[C@H](NC)[C@H]2O[C@]3(O)[C@H](O[C@@H]2[C@H]1O)O[C@H](C)C[C@@]3(O)CNCc1cncnc1
Ans. > 200 µg/mL

Qu. Item CN[C@@H]1[C@H](O)[C@H](NC)[C@H]2O[C@]3(O)[C@H](O[C@@H]2[C@H]1O)O[C@H](C)C[C@@]3(O)CNCc1ccc(F)cc1 [compound 2, Trihydrochloride] : provide MIC
Ans. > 200 µg/mL

Qu. Supply reported MIC belonging to this compound: CN[C@@H]1[C@H](O)[C@H](NC)[C@H]2O[C@]3(O)[C@H](O[C@@H]2[C@H]1O)O[C@H](C)C[C@@]3(O)CNCCc1ccc[nH]1
Ans. > 200 µg/mL

Qu. Specify reported MIC for the compound shown: CN[C@@H]1[C@H](O)[C@H](NC)[C@H]2O[C@]3(O)[C@H](O[C@@H]2[C@H]1O)O[C@H](C)C[C@@]3(O)CNCCc1cccnc1
Ans. > 200 µg/mL

Qu. Read off the recorded MIC for CN[C@@H]1[C@H](O)[C@H](NC)[C@H]2O[C@]3(O)[C@H](O[C@@H]2[C@H]1O)O[C@H](C)C[C@@]3(O)CNCc1cccc(F)c1 [compound 15, Trihydrochloride]
Ans. ≥ 200 µg/mL

Qu. Give a short answer stating reported MIC for CN[C@@H]1[C@H](O)[C@H](NC)[C@H]2O[C@]3(O)[C@H](O[C@@H]2[C@H]1O)O[C@H](C)C[C@@]3(O)CNCc1cnccn1 .
Ans. > 200 µg/mL

Qu. Complete the entry with MIC for CN[C@@H]1[C@H](O)[C@H](NC)[C@H]2O[C@]3(O)[C@H](O[C@@H]2[C@H]1O)O[C@H](C)C[C@@]3(O)CNCc1ccccc1Cl [compound 56, Trihydrobromide]
Ans. > 200 µg/mL

Qu. Write down MIC measured for item CN[C@@H]1[C@H](O)[C@H](NC)[C@H]2O[C@]3(O)[C@H](O[C@@H]2[C@H]1O)O[C@H](C)C[C@@]3(O)CNCc1nccs1
Ans. > 200 µg/mL

* * *

# Tested on: M. tuberculosis clinical isolates
# TEST DESCRIPTION: microbe, parasite or virus in culture
# Type: cell-based
# APPLIED CONDITIONS: Mycobacterium tuberculosis, H37RV, read-out: MIC H37Rv
Structures can show the parent of a compound that is named as a salt.
Recorded MIC for the following molecules

The cases that follow already have their MIC on record.
- MOLECULE: "CN[C@@H]1[C@H](O)[C@H](NC)[C@H]2O[C@]3(O)[C@H](O[C@@H]2[C@H]1O)O[C@H](C)C[C@@]3(O)CNCCc1ccc[nH]1 [compound 62]"
  TARGET: "M. tuberculosis clinical isolates"
  MIC: "50 µg/mL"
- MOLECULE: "CN[C@@H]1[C@H](O)[C@H](NC)[C@H]2O[C@]3(O)[C@H](O[C@@H]2[C@H]1O)O[C@H](C)C[C@@]3(O)CNCc1ccc(F)c(F)c1 [compound 12, Trihydrochloride]"
  TARGET: "M. tuberculosis clinical isolates"
  MIC: "50 µg/mL"
- MOLECULE: "CN[C@@H]1[C@H](O)[C@H](NC)[C@H]2O[C@]3(O)[C@H](O[C@@H]2[C@H]1O)O[C@H](C)C[C@@]3(O)CNCCc1ccccc1 [compound 6, Trihydrochloride]"
  TARGET: "M. tuberculosis clinical isolates"
  MIC: "1.6 µg/mL"
- MOLECULE: "CN[C@@H]1[C@H](O)[C@H](NC)C2O[C@]3(O)C(OC2[C@H]1O)O[C@H](C)C[C@@]3(O)CNCc1ccc(C)o1 (some centres unmarked) [compound 46]"
  TARGET: "M. tuberculosis clinical isolates"
  MIC: "25 µg/mL"

Next item in the queue.
Qu. Identify measured MIC corresponding to CN[C@@H]1[C@H](O)[C@H](NC)[C@H]2O[C@]3(O)[C@H](O[C@@H]2[C@H]1O)O[C@H](C)C[C@@]3(O)CNCc1cccc(F)c1 [compound 15, Trihydrochloride]
Ans. 25 µg/mL

* * *

# System: Staphylococcus aureus (ATCC 29213)
# TEST DESCRIPTION: MIC determination, microbroth dilution
# Type: cell-based
# APPLIED CONDITIONS: ATCC29213; Staphylococcus aureus (ATCC 29213); read-out: MIC S.a.
Listed here: items and their measured MIC.
Record the value in µg/mL, omitting the unit from your answer.

Qu. Please supply the value of reported MIC for the item CN[C@@H]1[C@H](O)[C@H](NC)C2O[C@]3(O)C(OC2[C@H]1O)O[C@H](C)C[C@@]3(O)CNCc1cccc(C(=O)OC)c1 (some centres unmarked)
Ans. 200

* * *

# Test system: Neisseria meningitides (ATCC 13077)
# TEST DESCRIPTION: Disc diffusion assay
# Format: cell-based
# APPLIED CONDITIONS: ATCC13077, 4 μg per disc, read-out: Zone of inhibition N.m.
Counter-ions that a name gives are not always drawn.
Everything with zone of inhibition at 4 µg/disc lower than 10 mm is Not met; everything else, including exactly 10 mm, is Met.

- COMPOUND: "CN[C@@H]1[C@H](O)[C@H](NC)[C@H]2O[C@]3(O)[C@H](O[C@@H]2[C@H]1O)O[C@H](C)C[C@@]3(O)CNCCc1ccc(OC(F)(F)F)cc1 [compound 57, Trihydrochloride]"
  CATEGORY: "Met"

Qu. In plain terms: is recorded zone of inhibition at 4 µg/disc at least 10 mm for CN[C@@H]1[C@H](O)[C@H](NC)[C@H]2O[C@]3(O)[C@H](O[C@@H]2[C@H]1O)O[C@H](C)C[C@@]3(O)CNCCCc1ccccc1 [compound 13, Trihydrochloride] ?
Ans. Met

Qu. Confirm if zone of inhibition at 4 µg/disc reported for the compound CN[C@@H]1[C@H](O)[C@H](NC)[C@H]2O[C@]3(O)[C@H](O[C@@H]2[C@H]1O)O[C@H](C)C[C@@]3(O)CNCc1ccccn1 is 10 mm or above.
Ans. Met
